System: AD38 cells
Test: Viability of AD38 cells (Promega CellTiter-Glo)
Assay type: cell-based
Conditions: 10 μM compound, 6 days, CellTiter-Glo luminescence normalized to DMSO control (100%)
Protocol: Example 2: Assay Measuring Activity of Compounds on Viral Production in and on Viability of AD38 Cells AD38 cells were then re-suspended with 10 mL of Treatment Medium and counted. […] At the end of compound treatment period cell viability was assessed using a Promega CellTiter-Glo protocol. […]
observed property: AD38 Viability Normalized Result (cmpd/DMSO %) at 10 μM
One number for each entry, in %.

Known results for molecules:
>  <compound structure>
CN(C)CCCOc1ncc(CN(C)C(=O)c2ccc3c(c2)NC(=O)c2ccccc2O3)s1

>  <measured on>
AD38 cells

>  <endpoint value>
102

$$$$
>  <compound structure>
N#Cc1ccc(-c2ncc(CNC(=O)c3ccc4c(c3)NC(=O)c3ccccc3O4)s2)cc1

>  <measured on>
AD38 cells

>  <endpoint value>
100

$$$$
>  <compound structure>
CCCCN1c2ccc(C(=O)NCc3cnc(C(F)(F)F)s3)cc2NC(=O)c2ccccc21

>  <measured on>
AD38 cells

>  <endpoint value>
39

$$$$
>  <compound structure>
CN(C)CCOc1ncc(CN(C)C(=O)c2ccc3c(c2)NC(=O)c2ccccc2S3(=O)=O)s1

>  <measured on>
AD38 cells

>  <endpoint value>
102

$$$$
>  <compound structure>
O=C(NCc1cnc(-c2ccc(OCCCN3CCC[C@H]3C(=O)O)cc2)s1)c1ccc2c(c1)NC(=O)c1ccccc1S2(=O)=O

>  <measured on>
AD38 cells

>  <endpoint value>
97

$$$$

Please state, for each entry, its recorded AD38 Viability Normalized Result (cmpd/DMSO %) at 10 μM.
1. O=C(NCc1cnc(-c2cncs2)s1)c1ccc2c(c1)NC(=O)c1ccccc1S2(=O)=O
2. O=C(NCc1cnc(-c2ccccc2CCO)s1)c1ccc2c(c1)NC(=O)c1ccccc1S2(=O)=O

1. 88
2. 96
